The measured values listed here are drawn from patent US20250276077A1.

target: T1, Human EphA2 (human, UniProt P29317 24-976); test: IHC/IF on frozen human tumor tissue: RCC-clear cell
T1 construct: Endogenous EphA2 in fresh frozen human tumor tissue sections, not a recombinant protein; also called ephrin receptor A2; hEphA2
metric: IHC score

Give recorded IHC score. AB-009816 (antibody, mouse IgG2a, V domains shown, Made on a mouse IgG2a framework) VH: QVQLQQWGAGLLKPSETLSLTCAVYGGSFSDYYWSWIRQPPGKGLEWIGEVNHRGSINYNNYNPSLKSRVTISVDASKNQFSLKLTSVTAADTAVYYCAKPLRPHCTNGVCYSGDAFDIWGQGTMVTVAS VL: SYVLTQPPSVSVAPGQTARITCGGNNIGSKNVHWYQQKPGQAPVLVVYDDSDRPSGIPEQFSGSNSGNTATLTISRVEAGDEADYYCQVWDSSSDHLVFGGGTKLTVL 1

Using known records, supply IHC score for AB-009812 (antibody, mouse IgG2a, V domains shown, Made on a mouse IgG2a framework) VH: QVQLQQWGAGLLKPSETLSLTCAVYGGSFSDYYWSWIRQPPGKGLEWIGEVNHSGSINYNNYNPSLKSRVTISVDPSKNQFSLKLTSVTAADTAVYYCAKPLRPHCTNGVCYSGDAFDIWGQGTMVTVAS VL: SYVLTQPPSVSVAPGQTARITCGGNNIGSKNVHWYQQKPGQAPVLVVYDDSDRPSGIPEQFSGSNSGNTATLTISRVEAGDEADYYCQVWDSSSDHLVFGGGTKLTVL 1

Tell me its IHC score given AB-009813 (antibody, mouse IgG2a, V domains shown, Made on a mouse IgG2a framework) VH: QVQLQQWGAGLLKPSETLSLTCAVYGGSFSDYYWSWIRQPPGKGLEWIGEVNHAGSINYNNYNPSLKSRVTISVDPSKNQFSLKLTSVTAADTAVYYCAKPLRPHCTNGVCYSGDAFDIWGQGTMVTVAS VL: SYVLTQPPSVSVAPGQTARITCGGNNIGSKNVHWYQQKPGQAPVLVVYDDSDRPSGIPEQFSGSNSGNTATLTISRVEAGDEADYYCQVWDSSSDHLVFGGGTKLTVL as the entry. 1
